The measurements presented in this section are drawn from patent US20100022559A1.

- assayRemarks: logP determination by HPLC on a reversed-phase column (C 18), EEC Directive 79/831 Annex V.A8
- Type: physicochemical
- condition: value marked [b]
measuredParameter: logP

# return recorded logP for entry CC(=NOCC(C)CON=C(C)c1cccc(C)n1)c1ccc2ccccc2c1 (stereo not drawn) [compound 497] 5.84^[b]

Kindly indicate its recorded logP. Item: CC(=NOCCCCCCON=C(C)c1cccc(Cc2ccccc2)n1)c1cccc(C)n1 [compound 340] 6.86^[b]

Consider the molecule CC(=NOCC(C)CON=C(C)c1ccc(Cl)s1)c1cccc(C)n1 (stereo not drawn) [compound 498] and give its recorded logP. 5.36^[b]

Please give the documented logP of CC(=NOCCCCCCON=C(Cc1ccccc1)c1ncccc1C)c1cccc(C)n1 (single isomer, unassigned) [compound 531] 4.97^b] (isomer )A

Using the record for CC(=NOCCCCON=C(C)c1ncccc1C)c1cccc(C)n1 [compound 451] , state its measured logP. 3.02^[b]

Specify logP for CCCC(=NOCCCCON=C(C)c1cccc(C)n1)c1cccc(C)n1 [compound 330] and stop. 4.82^[b]

Give recorded logP. CC(=NOCC(C)CON=C(C)c1cccc(C)n1)c1cnccn1 (stereo not drawn) [compound 507] 3.28^[b]

Fill in reported logP for this entry: CC(=NOCCCCON=C(C)c1ccccc1Cl)c1cccc(C)n1 [compound 379] 4.85^[b]

Respond only with logP recorded for CC(=NOCCCCON=C(C)c1cccc(C)n1)c1ccccn1 [Compound 376] 3.11^[b]

Output measured logP for this item: CC(=NOC/C=C\CON=C(C)c1cccc(C)n1)c1cccc(C)n1 [compound 778] 3.31^[b]

Please list logP recorded for the molecule CC(=NOCC1(CON=C(C)c2cccc(NCC3CC3)n2)CCC1)c1cccc(NCC2CC2)n1 [compound 850] 2.28^[b]

Provide only the value of recorded logP for CC(=NOCC(CON=C(C)c1ccc(C)c(C)n1)C(C)(C)C)c1ccc(C)c(C)n1 (stereo not drawn) [Compound 317] 4.91^[b]

Consider the molecule CC(=NOCC1(CON=C(C)c2cccc(C)n2)COC(=O)N1)c1cccc(C)n1 (stereo not drawn) [compound 856] and give its recorded logP. 1.99^[b]

Input CCC(C)(CON=C(C)c1cccc(C)n1)CON=C(C)c1cccc(C)n1 (stereo not drawn) [Compound 788] , output reported logP. 5.73^[b]

Write down logP measured for item CCC(=NOCC(C)(C)CON=C(C)c1cccc(C)n1)c1cccc(C)n1 [Compound 372] 5.33^[b]

Determine from records and report logP for CC(=NOCCCCCCON=C(C)c1cccc(C)n1)c1ccc(C)nc1 [compound 394] 2.62^[b]

Read the entry CC(=NOCC(C)CON=C(CC(C)C)c1ncccc1C)c1cccc(C)n1 (stereo not drawn) [compound 422] and write its reported logP. 4.51^[b]

Could you please provide reported logP for COc1cc(C)nc(C(C)=NOCC(C)CON=C(C)c2cccc(C)n2)c1 (stereo not drawn) [Compound 501] ? Thanks! 3.37^[b]

Give me measured logP, please, for this molecule: CC(=NOCC(C)(C)CON=C(C)c1ccc(C)c(C)n1)c1cccc(C)n1 [Compound 799] 4.96^[b]

Report logP, nothing else, for this molecule: CCC(C)(CON=C(C)c1ccc(C)c(C)n1)CON=C(C)c1ccc(C)c(C)n1 (stereo not drawn) [Compound 793] 5.39^[b]

Report logP for CC(=NOCCCCON=C(C)c1cccnc1C)c1cccc(C)n1 [compound 448] 1.69^[b]

Indicate its recorded logP; the molecule in question is CC(=NOCCCCON=C(C)c1cccc(C)n1)c1cc(C)ccn1 [Compound 373] 2.66^[b]

Name the recorded logP of the molecule listed here: CC(=NOCCCCCCON=C(C)c1ncccc1C)c1cccc(C)n1 [compound 464] 4.25^[b]

Using the record for CC(=NOCC(C)(C)CON=C(C)c1ccc(Cl)s1)c1cccc(C)n1 [Compound 486] , state its measured logP. 5.84^[b]
